- Tgt: T1, rabbit alpha2-Antiplasmin (rabbit (Oryctolagus cuniculus))
- T1 construct: Made in house in HEK293 cells, purified by Ni-IMAC and SEC (a His tag is implied but not described); also called rabbit A2AP; Oryctolagus cuniculus A2AP
- T1 chain: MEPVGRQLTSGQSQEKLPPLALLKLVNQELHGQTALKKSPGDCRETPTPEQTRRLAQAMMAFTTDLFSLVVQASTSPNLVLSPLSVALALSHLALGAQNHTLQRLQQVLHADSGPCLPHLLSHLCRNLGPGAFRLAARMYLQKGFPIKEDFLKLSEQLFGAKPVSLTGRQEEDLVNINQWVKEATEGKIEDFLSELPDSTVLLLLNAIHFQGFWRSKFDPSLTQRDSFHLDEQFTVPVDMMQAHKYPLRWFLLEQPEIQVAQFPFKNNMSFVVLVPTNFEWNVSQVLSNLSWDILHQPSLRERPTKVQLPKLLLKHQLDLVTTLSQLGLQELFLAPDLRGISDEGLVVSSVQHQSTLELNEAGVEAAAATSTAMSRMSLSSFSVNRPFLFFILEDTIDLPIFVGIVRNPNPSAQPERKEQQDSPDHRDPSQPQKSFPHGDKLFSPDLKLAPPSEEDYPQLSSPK
- Procedure Text: SPR Biacore T200, antibody captured on protein G chip, A2AP as analyte, 25 C
Endpoint Name: pKd
Keep in mind that pKd stands for -log10 of concentration in molar terms.

{"columns": ["Binder", "Recorded Measurement"],
 "data": [
  ["TPP-17053 hIgG1 (antibody, V domains shown, Germline variant of TPP-14308) VH: EVQLLESGGGLVQPGGSLRLSCAASGFTFDDYAMSWVRQAPGKGLEWVSAIGSGGSTYYADSVKGRFTISRDNSKNTLYLQMNSLRAEDTAVYYCAREGYDSSGYYHLDYWGQGTLVTVSS VL: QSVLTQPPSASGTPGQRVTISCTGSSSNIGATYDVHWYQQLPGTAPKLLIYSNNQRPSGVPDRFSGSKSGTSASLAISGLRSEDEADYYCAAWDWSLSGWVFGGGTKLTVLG", 7.55],
  ["TPP-14308 hIgG1 (antibody, V domains shown, starting point of the germlining) VH: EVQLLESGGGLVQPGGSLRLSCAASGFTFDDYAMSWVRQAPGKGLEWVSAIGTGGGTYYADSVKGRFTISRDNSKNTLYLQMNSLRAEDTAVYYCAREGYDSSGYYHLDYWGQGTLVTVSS VL: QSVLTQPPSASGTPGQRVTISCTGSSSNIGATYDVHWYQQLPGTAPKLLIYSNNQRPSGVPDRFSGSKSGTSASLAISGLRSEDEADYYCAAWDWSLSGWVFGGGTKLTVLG", 8.11],
  ["TPP-17051 hIgG1 (antibody, V domains shown, Germline variant of TPP-14308) VH: EVQLLESGGGLVQPGGSLRLSCAASGFTFDSYAMSWVRQAPGKGLEWVSAIGTGGSTYYADSVKGRFTISRDNSKNTLYLQMNSLRAEDTAVYYCAREGYDSSGYYHLDYWGQGTLVTVSS VL: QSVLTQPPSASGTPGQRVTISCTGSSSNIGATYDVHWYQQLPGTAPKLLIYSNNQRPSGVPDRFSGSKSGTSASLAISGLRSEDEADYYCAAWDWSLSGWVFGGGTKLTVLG", 7.77],
  ["TPP-17045 hIgG1 (antibody, V domains shown, Germline variant of TPP-14308) VH: EVQLLESGGGLVQPGGSLRLSCAASGFTFDDYAMSWVRQAPGKGLEWVSAIGTGGGTYYADSVKGRFTISRDNSKNTLYLQMNSLRAEDTAVYYCAKEGYDSSGYYHLDYWGQGTLVTVSS VL: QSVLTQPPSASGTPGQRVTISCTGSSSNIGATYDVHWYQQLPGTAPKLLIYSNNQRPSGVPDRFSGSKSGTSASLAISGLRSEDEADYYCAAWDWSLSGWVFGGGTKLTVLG", 7.31],
  ["TPP-17048 hIgG1 (antibody, V domains shown, Germline variant of TPP-14308) VH: EVQLLESGGGLVQPGGSLRLSCAASGFTFSDYAMSWVRQAPGKGLEWVSAIGTGGSTYYADSVKGRFTISRDNSKNTLYLQMNSLRAEDTAVYYCAREGYDSSGYYHLDYWGQGTLVTVSS VL: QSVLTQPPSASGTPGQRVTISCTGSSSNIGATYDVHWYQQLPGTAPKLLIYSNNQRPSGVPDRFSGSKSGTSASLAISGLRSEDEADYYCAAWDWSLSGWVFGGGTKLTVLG", 8.01]
]}

Now for another entry.
*Q* Identify pKd associated with the binder TPP-17041 hIgG1 (antibody, V domains shown, Germline variant of TPP-14308) VH: EVQLLESGGGLVQPGGSLRLSCAASGFTFSDYAMSWVRQAPGKGLEWVSAIGTGGGTYYADSVKGRFTISRDNSKNTLYLQMNSLRAEDTAVYYCAREGYDSSGYYHLDYWGQGTLVTVSS VL: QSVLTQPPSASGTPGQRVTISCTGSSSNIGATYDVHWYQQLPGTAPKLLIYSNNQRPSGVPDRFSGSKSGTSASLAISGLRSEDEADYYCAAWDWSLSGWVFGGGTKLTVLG
*A* 7.74
